Tested on: AncSZ
Assay: phosphorylation enrichment, bacterial display (enrichment ratio); higher = better substrate or ligand; peptides without Tyr show the background
Assign class by phosphorylation enrichment: not lower than 0.8 means T; lower than 0.8 means F.

INSERT INTO measurements (orderedresidues, classassignment) VALUES
  ('PVKAAYQKVVA [HBB_Y131_Q128K]', 'F'),
  ('SFTDPYAQPSL [KMT2D_Y2378_P2382S_YF]', 'F'),
  ('SMEMKYLEEKN [ZAP70_Y451_G448E]', 'T'),
  ('FTAVGYHKHFT [NOMO1_Y1137_I1141F]', 'F'),
  ('ELELLYLDRNS [NYX_Y284]', 'T'),
  ('SISLKYEGRVY [ABL1_Y167_R166K]', 'T'),
  ('FEPDAYDDLDQ [ELP5_Y302_YF]', 'T'),
  ('ESPGLYGFLNV [BCR_Y910]', 'T'),
  ('GSETPYMDRTP [ESS2_Y335_V336M]', 'F'),
  ('HFEFKYVINAI [MAOA_Y268_C266F_YF]', 'T'),
  ('SRLDSYVRSLP [TRAPPC1_Y133]', 'F'),
  ('WCSNDHLGMSR [ALAS2_Y199_Y199H]', 'F'),
  ('SVVVLYEPPEV [TP53_Y220_P219L]', 'T'),
  ('SSFDTYHLSRE [KIR3DL2_Y253_I252T_YF]', 'F'),
  ('VICRRYLVMQR [IL3RA_Y328]', 'T'),
  ('DTFDPYLDVAL [USP36_Y268_YF]', 'T'),
  ('TGDFGYRAPGY [TNS2_Y668]', 'F'),
  ('LGPSDYFGEIV [PRKAR1A_Y323_A328V]', 'T');

###

Tested on: c-Src
Assay: phosphorylation enrichment, bacterial display (enrichment ratio); higher = better substrate or ligand; peptides without Tyr show the background
experimentalEndpoint: phosphorylation enrichment

INSERT INTO results (orderedresidues, endpointresult) VALUES
  ('TEAEPYYCSLR [NPHS1_Y1138_R1140C]', 3.96),
  ('MSRNLYSGDCY [DDR2_Y736_Y740C]', 1.49),
  ('GYIISYREEEQ', 0.516),
  ('KFACSYTPVKA [FLNB_Y708_T703K_YF]', 0.459);

###

sequences and their reported SH2 binding enrichment
Biological target: Grb2 SH2 (UniProt P62993)
Sequence (P62993 whole entry, looked up): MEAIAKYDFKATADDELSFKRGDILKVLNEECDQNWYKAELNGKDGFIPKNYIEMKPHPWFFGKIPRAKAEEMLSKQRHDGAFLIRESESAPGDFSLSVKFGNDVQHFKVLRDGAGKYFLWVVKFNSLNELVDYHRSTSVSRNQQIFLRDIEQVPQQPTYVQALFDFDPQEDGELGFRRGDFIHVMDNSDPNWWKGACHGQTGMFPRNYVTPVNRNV
Experiment: SH2 binding enrichment of the phosphorylated peptide, bacterial display (enrichment ratio); higher = better substrate or ligand; peptides without Tyr show the background
experimentalEndpoint: SH2 binding enrichment

INSERT INTO measurements (orderedresidues, endpointresult) VALUES
  ('FLQEIYNSNNQ [FGG_Y140_YF]', 0.89),
  ('SNKLHYQLEQE [PDPR_Y110_Y109H]', 1.01),
  ('GQLIFYAPPEW [CNTN6_Y315]', 1.09),
  ('WNDPDYMDSRR [GAA_Y407_L405P]', 0.679),
  ('EFGFRYELVQF [UGGT2_Y1289_Y1285F_YF]', 0.849),
  ('ITNLLYHVVSW [GBA_Y412_G416S]', 1.25),
  ('ADNSAYLMGLN [MYH7_Y386_K383N]', 0.993),
  ('TLSGIYQYNIA [FOXL2_Y81_I84N]', 0.817),
  ('DPHECYAKVFD [ALB_Y394]', 0.987);

Data origin: the supplement of paper PMC10065799
